- target: KDM5A (His-tagged KDM5A 1-797) (Homo sapiens)
- Construct: residues 1-797, C-terminally truncated, N-terminal His6 tag, Sf9 baculovirus, HisTrap purified
- Sequence (P29375 1-797): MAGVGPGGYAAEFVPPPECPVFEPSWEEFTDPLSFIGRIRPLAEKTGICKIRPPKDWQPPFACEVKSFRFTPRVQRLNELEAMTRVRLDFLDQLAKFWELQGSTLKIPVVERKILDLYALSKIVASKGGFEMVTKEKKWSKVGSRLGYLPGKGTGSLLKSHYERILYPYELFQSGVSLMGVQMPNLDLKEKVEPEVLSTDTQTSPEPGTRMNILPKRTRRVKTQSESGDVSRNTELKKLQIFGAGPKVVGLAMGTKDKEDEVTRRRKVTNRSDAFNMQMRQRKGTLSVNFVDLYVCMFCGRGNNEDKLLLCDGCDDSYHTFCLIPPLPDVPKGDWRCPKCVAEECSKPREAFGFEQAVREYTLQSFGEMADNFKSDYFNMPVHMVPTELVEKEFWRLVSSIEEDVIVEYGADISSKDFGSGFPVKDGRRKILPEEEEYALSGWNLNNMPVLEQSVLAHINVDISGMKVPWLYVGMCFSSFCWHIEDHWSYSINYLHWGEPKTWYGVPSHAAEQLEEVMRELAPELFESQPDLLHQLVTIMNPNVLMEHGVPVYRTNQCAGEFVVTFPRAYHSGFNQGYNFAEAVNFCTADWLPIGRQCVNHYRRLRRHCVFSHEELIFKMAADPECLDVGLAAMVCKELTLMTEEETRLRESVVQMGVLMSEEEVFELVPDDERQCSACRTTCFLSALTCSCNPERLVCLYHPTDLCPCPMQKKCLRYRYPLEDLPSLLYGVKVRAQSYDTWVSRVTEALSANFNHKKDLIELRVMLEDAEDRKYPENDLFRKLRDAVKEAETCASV
- experimentalProtocol: AlphaScreen H3K4me3 demethylation
- Assay type: biochemical
- measurementConditions: read-out: IC50 (μM)^a
endpointName: IC50 (µM)

Cc1cc2nc3ccc(N(C)C)cc3[s+]c2cc1N [Tolonium Chloride] | 1.7
O=C1C(SCCO)=C(SCCO)C(=O)c2ccccc21 | 0.055
CN(C)c1ccc2nc3ccc(=[N+](C)C)cc-3sc2c1 | 1.1
O=[N+]([O-])c1ccc(O)c2ncccc12 | 5
Cc1ccc(NC2=CC(=O)c3sc(C)nc3C2=O)cc1 | 1.4

1 = Nc1ccc2cc3ccc(N)cc3nc2c1 [Proflavine Hemisulfate]
2 = CC1(C)C(=O)N=C2C1=C(O)C(=O)c1ccccc12
Q: Param metric = IC50; output whichever of 1 , 2 has the minimum value. Field: selected label. Fill in the label of the entry you choose.
Result: 1
